- Experiment notes: MM1S cell viability effects, profiling panel, calcein-AM fluorescence, 48 h, basal (AID 1165);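 also: viability of MM1S multiple myeloma cells under basal unstimulated conditions; test concentration not given here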
- Protocol conditions: higher = more signal
Measured quantity: z-score
I'd appreciate a reply containing only the number, no unit.

Field request: z-score | item: COCCOC(=O)N1C(=O)[C@@]2(c3cc(C#CCC(C(=O)OC)C(=O)OC)ccc31)[C@H](C(=O)Nc1nc3ccccc3s1)[C@H]1C(=O)O[C@H](c3ccccc3)[C@H](c3ccccc3)N1[C@@H]2c1ccccc1OCCO -0.139

State the recorded z-score for this entry: COC(=O)C(CC#Cc1ccc2c(c1)[C@]1(C(=O)N2)[C@H](C(=O)Nc2nc3ccccc3s2)[C@H]2C(=O)O[C@H](c3ccccc3)[C@H](c3ccccc3)N2[C@@H]1c1ccc(O)cc1)C(=O)OC -1.15

Requested field: z-score. Item: C=CCC(OC(C)=O)[C@@H]1[C@@H](N(Cc2ccc(-c3ccccc3)cc2)C(=O)c2cccc3ccccc23)c2cc(OCCCO)ccc2N1C(=O)c1ccc(-c2ccccc2)cc1 (some centres not stated) 0.139

Name the reported z-score value associated with the compound O=C1C[C@@](C(=O)NCCN2CCOCC2)(c2ccc([N+](=O)[O-])cc2)[C@@H](c2ccc(CO)cc2)N1CC12CC3CC(CC(C3)C1)C2 -3.83

Which z-score is reported for this compound? CCCC[C@@H]1C[C@H]1[C@@H](NC(=O)c1cccs1)c1ccc(-c2ccccc2)cc1 -0.802

Please look up its z-score: CN1C(=O)C2C=CC(C(O)C3CC=CCC3)N(N(c3ccccc3)c3ccccc3)C2C1=O (configuration not stated) 0.535

So what's the measured z-score for this one? COc1cc2c(cc1O)C(c1cccs1)N(C)CC2 (configuration not stated) 0.405
